# TARGET ENTITY: Delta-type opioid receptor (Homo sapiens, UniProt P41143)
# Sequence (P41143 whole entry): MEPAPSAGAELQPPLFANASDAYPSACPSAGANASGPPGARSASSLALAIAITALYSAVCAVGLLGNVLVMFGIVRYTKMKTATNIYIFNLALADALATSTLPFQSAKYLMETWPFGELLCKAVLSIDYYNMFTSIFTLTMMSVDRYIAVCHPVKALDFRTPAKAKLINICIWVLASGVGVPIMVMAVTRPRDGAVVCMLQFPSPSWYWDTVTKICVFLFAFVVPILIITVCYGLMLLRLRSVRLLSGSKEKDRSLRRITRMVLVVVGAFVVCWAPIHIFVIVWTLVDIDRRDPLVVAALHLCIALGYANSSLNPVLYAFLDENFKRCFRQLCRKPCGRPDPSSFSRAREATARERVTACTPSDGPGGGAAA
# TEST SUMMARY: Displacement of [3H]naltrindole from human delta opioid receptor expressed in CHO cells
PROPERTY: Ki (µM)
Enter your answer as a number in µM; do not include the unit.

COMPOUND: C[C@H]1C2Cc3ccc(C(=O)NCc4ccc(-c5ccccc5)cc4)cc3[C@@]1(C)CCN2CC1CC1 (mixture of isomers)
UNIT INFO: µM
Ki: 0.17

Tell me its Ki given C[C@H]1C2Cc3ccc(C(=O)N(C)CCc4ccc(-c5ccccc5)cc4)cc3[C@@]1(C)CCN2CC1CC1 (racemic) as the entry.
0.012

Tell me its Ki given C[C@H]1C2Cc3ccc(C(=O)Nc4ccc(-c5ccccc5)cc4)cc3[C@@]1(C)CCN2CC1CC1 (mixture of isomers) as the entry.
0.11

Tell me its Ki given C[C@H]1C2Cc3ccc(C(=O)Nc4ccccc4)cc3[C@@]1(C)CCN2CC1CC1 as the entry.
2.1
